target: D(1A) dopamine receptor (Homo sapiens)
assay.text: HTS Assay for Allosteric Agonists of the Human D1 Dopamine Receptor: Primary Screen for Antagonists (AID 488983);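 note: calcium flux response to an EC80 dopamine challenge measured with no-wash dye; nearly all actives have a fitted effect of over 65% in size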
condition.context: D1 receptor cell assay, antagonist mode, qHTS titration; series mostly up to 41.8 µM
Results filed as inconclusive are left out. Calls of active or inactive are those of the source. Calls come from the whole dose curve; as a rule, active = well fitted inhibition curve with a large enough effect; inconclusive = small, poorly fitted or top-dose-only effect, or effect the other way; inactive = flat fitted curve, though single readings scatter.
One label from this list, please: active, inactive

IN: Write down the call the test reported for this compound. Item: "NCCCCC(=O)O"
OUT: inactive

IN: Write down the call the test reported for this compound. Item: "N=C(N)SCCc1ccc(CCSC(=N)N)cc1"
OUT: inactive

IN: Write down the call the test reported for this compound. Item: "N#C/C(=C\c1ccc(-c2cc(Cl)ccc2Cl)o1)C(=O)Nc1cccc2ncccc12"
OUT: inactive
